Assay: In vivo pharmacokinetics in rat
Design: species or system Sprague Dawley rat
Conditions: male, Sprague Dawley, plasma, iv, 10000 ug/kg, i.v., 10000 μg/kg, read-out: VSS
Parameter: Vd (L/kg)

>  <Chemical Structure>
CC(C)(C)c1cc(CCC(=O)c2ccc[nH]2)cc(C(C)(C)C)c1O

>  <Parameter>
Vd

>  <Readout Unit>
L/kg

>  <Test Result>
26.9

$$$$

* * *

Experiment: In vivo pharmacokinetics in rat
Design: species or system Sprague Dawley rat
Details: male, Sprague Dawley, plasma, po, 10000 ug/kg

>  <Chemical Structure>
CC(C)(C)c1cc(CCC(=O)c2ccc[nH]2)cc(C(C)(C)C)c1O

>  <Tmax [h]>
2

$$$$

* * *

Assay: In vivo pharmacokinetics in rat
Design: species or system Sprague Dawley rat
Conditions: male, Sprague Dawley, plasma, iv, 10000 ug/kg
Parameter: Cmax (ng/mL)

>  <Chemical Structure>
CC(C)(C)c1cc(CCC(=O)c2ccc[nH]2)cc(C(C)(C)C)c1O

>  <Parameter>
Cmax

>  <Test Result>
837

$$$$

* * *

System: MDR1
Assay: MDCK-MDR1 permeability assay
Type: in vitro ADME, canine
Settings: dog, Basolateral to Apical
Parameter: Papp B→A (×10⁻⁶ cm/s)

>  <Chemical Structure>
CC(C)(C)c1cc(CCC(=O)c2ccc[nH]2)cc(C(C)(C)C)c1O

>  <Experimental Target>
MDR1

>  <Test Result>
1.6

$$$$

* * *

Test: In vivo pharmacokinetics in rat
Design: species or system Sprague Dawley rat
Conditions: male, Sprague Dawley, plasma, iv, 10000 ug/kg
Parameter: AUC(0-t) (ng·h/mL)

>  <Compound>
CC(C)(C)c1cc(CCC(=O)c2ccc[nH]2)cc(C(C)(C)C)c1O [Compound 1]

>  <Parameter>
AUC(0-t)

>  <Readout Unit>
ng·h/mL

>  <Test Result>
694

$$$$
